Experimental target: Recombinant human Cat K (Homo sapiens)
Experimental details: In vitro enzymatic assay of Cat K inhibition (Z-Phe-Arg-AMC fluorescence)
Format: biochemical
Measurement setup: pH 6.0, substrate Z-Phe-Arg-AMC, read-out: Cat K IC50 (µM) ± SD
Outcome measure: IC50 (µM)

Some solved cases for reference:
Compound | Outcome measure | Meas value
COc1ccc(S(=O)(=O)N2CCC[C@@H](C(=O)NCc3cccc(C)c3)C2)cc1 [Compound H-2] | IC50 | 4.76
COc1ccc(S(=O)(=O)N2CCC[C@@H](C(=O)NCc3ccccc3C)C2)cc1 [Compound H-1] | IC50 | 3.52
C#C[C@@H]1CN(C(=O)[C@H](CC(C)C)NC(=O)c2ccc(-c3nc(N4CCN(C)CC4)sc3F)cc2)[C@@H]2C(=O)CO[C@H]12 [MIV-711, reference compound] | IC50 | 0.09
COc1ccc(S(=O)(=O)N2CCC[C@@H](C(=O)NCc3ccc(Cl)cc3)C2)cc1 [Compound H-9] | IC50 | 0.08

A. COc1ccc(CNC(=O)[C@@H]2CCCN(S(=O)(=O)c3cccc(C)c3)C2)cc1 [Compound H-20]
B. COc1ccc(CNC(=O)[C@@H]2CCCN(S(=O)(=O)c3cccc(Cl)c3)C2)cc1 [Compound H-17]
Ask: I need your help: which of the pair A , B has higher IC50? Answer = label.
Result: A

====

melting point values for the compounds below.

Recorded results for 5 compounds are shown here.
Compound | melting point
COc1ccc(CNC(=O)[C@@H]2CCCN(S(=O)(=O)c3ccc(C)cc3)C2)cc1 [Compound H-21] | 162.9 to 163.7 °C
COc1ccc(CNC(=O)[C@@H]2CCCN(S(=O)(=O)c3ccc(Br)cc3)C2)cc1 [Compound H-15] | 152.4 to 154.4 °C
COc1ccc(CNC(=O)[C@@H]2CCCN(S(=O)(=O)c3cccc(C)c3)C2)cc1 [Compound H-20] | 152.6 to 154.2 °C
COc1ccc(CNC(=O)[C@@H]2CCCN(S(=O)(=O)c3ccccc3C)C2)cc1 [Compound H-19] | 108.3 to 109.4 °C
COc1ccc(S(=O)(=O)N2CCC[C@@H](C(=O)NCc3ccccc3Br)C2)cc1 [Compound H-10] | 153.7 to 154.5 °C

Ask: Supply melting point value. Item: COc1ccc(S(=O)(=O)N2CCC[C@@H](C(=O)NCc3cccc(Cl)c3)C2)cc1 [Compound H-8]
Result: 146.1 to 148.7 °C

Ask: Give recorded melting point. COc1ccc(CNC(=O)[C@@H]2CCCN(S(=O)(=O)c3ccc(Cl)cc3)C2)cc1 [Compound H-18]
Result: 147 to 148.7 °C

====

Experimental details: Acute toxicity testing, oral
Assay type: in vivo, mice
Measurement setup: mouse, in vivo, 300 mg/kg/day for 7 days, mice
Outcome measure: LD50 at 7 days

Ask: Quick one: give measured LD50 at 7 days for COc1ccc(S(=O)(=O)N2CCC[C@@H](C(=O)NCc3ccc(Cl)cc3)C2)cc1 [Compound H-9]
Result: > 300 mg/kg

====

Experimental target: Recombinant human Cat K (Homo sapiens)
Experimental details: In vitro enzymatic assay of Cat K inhibition (Z-Phe-Arg-AMC fluorescence)
Assay type: biochemical
Measurement setup: pH 6.0, substrate Z-Phe-Arg-AMC, read-out: Cat K IC50 (µM) ± SD
Outcome measure: IC50 (µM)

Example entries and their recorded answers appear below.
Compound | IC50 [µM]
COc1ccc(S(=O)(=O)N2CCC[C@@H](C(=O)NCc3ccccc3Br)C2)cc1 [Compound H-10] | 2.18
COc1ccc(CNC(=O)[C@@H]2CCCN(S(=O)(=O)c3ccc(Cl)cc3)C2)cc1 [Compound H-18] | 0.78

I. COc1ccc(S(=O)(=O)N2CCC[C@@H](C(=O)NCc3ccc(C)cc3)C2)cc1 [Compound H-3]
II. COc1ccc(CNC(=O)[C@@H]2CCCN(S(=O)(=O)c3ccccc3Br)C2)cc1 [Compound H-13]
Ask: Compare I and II and name the one whose reported IC50 is smaller. Kindly give the label for the entry you pick.
Result: II
(II: 0.74 µM, I: 4.39 µM)

====

Outcome measure: melting point

In the examples that follow, each entry is paired with its recorded melting point.
Smiles entry | melting point
COc1ccc(S(=O)(=O)N2CCC[C@@H](C(=O)NCc3cccc(Br)c3)C2)cc1 | 124.7 to 126.5 °C
COc1ccc(CNC(=O)[C@@H]2CCCN(S(=O)(=O)c3ccccc3Cl)C2)cc1 | 162.3 to 164.5 °C

Ask: Supply melting point value. Item: COc1ccc(CNC(=O)[C@@H]2CCCN(S(=O)(=O)c3cccc(Cl)c3)C2)cc1
Result: 117.1 to 119.9 °C

Ask: // Input: COc1ccc(CNC(=O)[C@@H]2CCCN(S(=O)(=O)c3ccccc3Br)C2)cc1 . Output its melting point only.
Result: 189.5 to 190.5 °C

====

Experimental target: Recombinant human Cat K (Homo sapiens)
Experimental details: In vitro enzymatic assay of Cat K inhibition (Z-Phe-Arg-AMC fluorescence)
Type: biochemical
Measurement setup: pH 6.0, substrate Z-Phe-Arg-AMC, read-out: Cat K IC50 (µM) ± SD
Outcome measure: IC50 (µM)

Worked examples follow.
Smiles entry | IC50 [µM]
COc1ccc(S(=O)(=O)N2CCC[C@@H](C(=O)NCc3ccccc3Cl)C2)cc1 | 1.06
COc1ccc(CNC(=O)[C@@H]2CCCN(S(=O)(=O)c3cccc(Br)c3)C2)cc1 | 0.91

I. COc1ccc(CNC(=O)[C@@H]2CCCN(S(=O)(=O)c3ccccc3Cl)C2)cc1
II. COc1ccc(S(=O)(=O)N2CCC[C@@H](C(=O)NCc3cccc(OC)c3)C2)cc1
III. COc1ccc(S(=O)(=O)N2CCC[C@@H](C(=O)NCc3cccc(Br)c3)C2)cc1
IV. COc1ccc(S(=O)(=O)N2CCC[C@@H](C(C)=O)C2)cc1
V. COc1ccc(S(=O)(=O)N2CCC[C@@H](C(=O)NCc3ccc(Br)cc3)C2)cc1
Ask: Hey, quick one: sort these by IC50, largest value first please. Lab note: record answer as labels in requested order.
Result: IV, II, I, III, V
(IV: 13.5 µM, II: 2.93 µM, I: 2.03 µM, III: 0.66 µM, V: 0.22 µM)

====

Experimental target: Recombinant human Cat K (Homo sapiens)
Sequence (P43235 115-329): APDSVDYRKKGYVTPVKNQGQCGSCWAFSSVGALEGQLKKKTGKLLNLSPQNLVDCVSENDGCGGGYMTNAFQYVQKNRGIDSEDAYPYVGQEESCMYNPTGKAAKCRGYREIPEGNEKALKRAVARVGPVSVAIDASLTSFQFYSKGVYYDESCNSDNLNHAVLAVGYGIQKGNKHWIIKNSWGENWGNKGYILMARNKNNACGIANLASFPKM
Experimental details: In vitro enzymatic assay of Cat K inhibition (Z-Phe-Arg-AMC fluorescence)
Type: biochemical
Measurement setup: pH 6.0, substrate Z-Phe-Arg-AMC, read-out: Cat K IC50 (µM) ± SD
Outcome measure: IC50 (µM)

Take a look at these entries with their results.
Compound | Scale unit | Meas value
COc1ccc(CNC(=O)[C@@H]2CCCN(S(=O)(=O)c3ccccc3C)C2)cc1 [Compound H-19] | µM | 5.33
COc1ccc(CNC(=O)[C@@H]2CCCN(S(=O)(=O)c3ccc(C)cc3)C2)cc1 [Compound H-21] | µM | 3.65

I. COc1ccc(S(=O)(=O)N2CCC[C@@H](C(=O)NCc3ccccc3OC)C2)cc1 [Compound H-4]
II. COc1ccc(S(=O)(=O)N2CCC[C@@H](C(=O)NCc3cccc(Cl)c3)C2)cc1 [Compound H-8]
Ask: // which entry has the larger IC50 value, I or II ? // output: label of the selected item
Result: I

====

Outcome measure: melting point

Compound | melting point
COc1ccc(CNC(=O)[C@@H]2CCCN(S(=O)(=O)c3ccc(OC)cc3)C2)cc1 [Compound H-6] | 139.4 to 140.9 °C
COc1ccc(CNC(=O)[C@@H]2CCCN(S(=O)(=O)c3cccc(Br)c3)C2)cc1 [Compound H-14] | 203.5 to 204.2 °C
COc1ccc(S(=O)(=O)N2CCC[C@@H](C(=O)NCc3ccc(C)cc3)C2)cc1 [Compound H-3] | 182.3 to 182.7 °C
COc1ccc(S(=O)(=O)N2CCC[C@@H](C(=O)NCc3cccc(OC)c3)C2)cc1 [Compound H-5] | 130.2 to 131.2 °C
COc1ccc(S(=O)(=O)N2CCC[C@@H](C(=O)NCc3ccccc3OC)C2)cc1 [Compound H-4] | 143.7 to 144.2 °C
COc1ccc(S(=O)(=O)N2CCC[C@@H](C(=O)NCc3ccccc3Cl)C2)cc1 [Compound H-7] | 192.3 to 193.6 °C
COc1ccc(S(=O)(=O)N2CCC[C@@H](C(=O)NCc3ccccc3C)C2)cc1 [Compound H-1] | 170.4 to 171.4 °C
COc1ccc(S(=O)(=O)N2CCC[C@@H](C(=O)NCc3ccc(Br)cc3)C2)cc1 [Compound H-12] | 148.1 to 149.3 °C

In the following, a different compound is considered.
Ask: Output melting point of COc1ccc(S(=O)(=O)N2CCC[C@@H](C(=O)NCc3cccc(C)c3)C2)cc1 [Compound H-2]
Result: 189.8 to 190.1 °C
